From: ChEMBL document CHEMBL4513216

tested on: Plasmodium berghei; assay: Screen against P. berghei liver stage (PbLuc), transformed with Luciferase, at 10uM; format: functional, HepG2; settings: tested at 10 uM
Out of some 69,000 compounds screened, about 8,600 (12%) showed an effect of 50% or more. What follows is part of a selection rich in strong results, with near analogues and random picks from the rest.
Quantity: INHIBITION (%)
Write it as a number; the unit % goes unstated.

Worked set:
CN(Cc1ccc([S+](C)[O-])cc1)c1cncc(Cl)n1 (stereo not drawn)	52.2
CCc1nc(C)c(CN2CCOC(CCCC(C)C)C2)[nH]1 (stereo not drawn)	68.9
O[C@H]1CCN(Cc2ccoc2)[C@H]1Cc1cccnc1	41.4
Cc1sc(NC(=O)CCC(=O)O)c(C(N)=O)c1-c1ccc(Cl)cc1Cl	41.6
Cc1ccc(C(=O)NCCCNS(C)(=O)=O)cc1-n1cccc1	51.3
Cc1nn(C)c(Cl)c1C(=O)NCc1cccnc1N1CCOCC1	-13

Sample Cc1noc(C2CCCN(Cn3cc(Br)cn3)C2)n1 (stereo not drawn) — what was its INHIBITION?
-12.2
